- target_or_test_system: Microtubule-associated protein tau (Homo sapiens) (UniProt P10636)
- Sequence (P10636 whole entry, looked up): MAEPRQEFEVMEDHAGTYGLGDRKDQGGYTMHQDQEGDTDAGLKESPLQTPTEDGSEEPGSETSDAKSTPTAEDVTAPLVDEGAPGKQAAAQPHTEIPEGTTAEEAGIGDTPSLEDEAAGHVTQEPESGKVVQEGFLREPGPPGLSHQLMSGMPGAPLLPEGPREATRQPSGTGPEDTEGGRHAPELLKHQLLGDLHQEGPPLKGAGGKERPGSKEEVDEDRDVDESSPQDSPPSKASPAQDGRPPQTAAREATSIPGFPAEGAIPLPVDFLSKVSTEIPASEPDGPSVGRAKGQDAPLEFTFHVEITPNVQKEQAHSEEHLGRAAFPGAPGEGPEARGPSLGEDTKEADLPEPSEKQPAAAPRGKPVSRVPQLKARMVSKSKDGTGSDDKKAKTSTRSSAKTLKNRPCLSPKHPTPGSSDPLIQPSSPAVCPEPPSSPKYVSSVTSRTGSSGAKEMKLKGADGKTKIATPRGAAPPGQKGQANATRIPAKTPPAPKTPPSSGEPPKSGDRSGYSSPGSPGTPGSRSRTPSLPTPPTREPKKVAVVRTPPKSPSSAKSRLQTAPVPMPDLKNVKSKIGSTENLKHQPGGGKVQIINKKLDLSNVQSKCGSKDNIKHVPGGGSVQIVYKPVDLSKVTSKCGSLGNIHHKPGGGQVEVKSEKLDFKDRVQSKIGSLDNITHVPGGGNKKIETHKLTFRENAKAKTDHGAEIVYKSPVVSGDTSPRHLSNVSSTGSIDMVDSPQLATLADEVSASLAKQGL
- assay_remarks: blockers of AD brain-seeded tau fibril growth – biochemical, seed amplification, ThT fluorescence, primary screen (AID 2061166)
- assay_context: Recombinant tau seeded by AD brain, ThT fluorescence AUC; at 100 µM; active compounds read high
A collection of compounds and their measured inhibition

# compound, inhibition [%]
data = [
    ("Oc1cc(O)c2c(c1)OC(c1ccc(O)c(O)c1)C(O)C2 (stereo not given)", 88.6),
    ("CC1(C)SC2C(NC(=O)C(N)c3ccc(O)cc3)C(=O)N2C1C(=O)O (stereo not given)", -6.81),
    ("CCc1nc(N)nc(N)c1-c1ccc(Cl)cc1", -7.97),
    ("O=C1CSC(=S)N1", -4.3),
    ("COC1C(=O)C2(C)C(OC)CC3OCC3(OC(C)=O)C2C(OC(=O)c2ccccc2)C2(O)CC(OC(=O)C(O)C(NC(=O)OC(C)(C)C)c3ccccc3)C(C)=C1C2(C)C (stereo not given)", 10.4),
    ("CCc1c2c(nc3ccc(OC(=O)N4CCC(N5CCCCC5)CC4)cc13)-c1cc3c(c(=O)n1C2)COC(=O)C3(O)CC (stereo not given)", 46.1),
    ("CC1(C)CCC2(C(=O)O)CCC3(C)C(=CCC4C5(C)CCC(O)C(C)(CO)C5CCC43C)C2C1 (stereo not given)", 65),
    ("CC1=NN(c2ccccc2)C(=O)C1", 48.4),
    ("CNCCC(Oc1cccc2ccccc12)c1cccs1 (stereo not given)", 48.5),
    ("O=C(OC1CC2CCC(C1)[N+]21CCCC1)C(O)(c1ccccc1)c1ccccc1 (stereo not given)", 16.5),
]

* * *

- target_or_test_system: Microtubule-associated protein tau (Homo sapiens) (UniProt P10636)
- assay_remarks: blockers of AD brain-seeded tau fibril growth – biochemical, seed amplification, ThT fluorescence, primary screen (AID 2061166)
- assay_context: Recombinant tau seeded by AD brain, ThT fluorescence AUC; at 100 µM; active compounds read high
The source made the active and inactive calls.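 The calls were made as follows: active = mean tau seeding fluorescence area under 1% of vehicle, meaning inhibition above a set limit; inactive = the rest.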
A collection of molecules and their measured inhibition

# molecule, inhibition
measured = [
    ("CC1(C)OC2COC3(COS(N)(=O)=O)OC(C)(C)OC3C2O1 (stereo not drawn)", "20.5% (inactive)"),
    ("C#CC1(O)CCC2C3CCC4=Cc5oncc5CC4(C)C3CCC21C (stereo not drawn)", "45.1% (inactive)"),
    ("CN(C)CCCN1c2ccccc2Sc2ccccc21", "13.2% (inactive)"),
]

* * *

- target_or_test_system: Microtubule-associated protein tau (Homo sapiens) (UniProt P10636)
- assay_remarks: blockers of AD brain-seeded tau fibril growth – biochemical, seed amplification, ThT fluorescence, primary screen (AID 2061166)
- assay_context: Recombinant tau seeded by AD brain, ThT fluorescence AUC; at 100 µM; active compounds read high
Please mark Criterion met if the recorded inhibition is equal to or greater than 50%, and Criterion not met if it falls below.

# compound, target_or_test_system, category_label
data = [
    ("CCN1CCN(Cc2ccc(Nc3ncc(F)c(-c4cc(F)c5nc(C)n(C(C)C)c5c4)n3)nc2)CC1", "Microtubule-associated protein tau (Homo sapiens) (UniProt P10636)", "Criterion not met"),
    ("CCOC(=O)C1=C(C)NC(C)=C(C(=O)OC)C1c1cccc(Cl)c1Cl (stereo not given)", "Microtubule-associated protein tau (Homo sapiens) (UniProt P10636)", "Criterion met"),
    ("O=C(c1cc(O)c(O)c(O)c1)c1ccc(O)c(O)c1O", "Microtubule-associated protein tau (Homo sapiens) (UniProt P10636)", "Criterion met"),
    ("OC(CCN1CCCCC1)(c1ccccc1)C1CCCCC1 (stereo not given)", "Microtubule-associated protein tau (Homo sapiens) (UniProt P10636)", "Criterion not met"),
    ("Cc1ccc(C(=O)c2cc(O)c(O)c([N+](=O)[O-])c2)cc1", "Microtubule-associated protein tau (Homo sapiens) (UniProt P10636)", "Criterion met"),
    ("Nc1nc(Cl)nc2c1ncn2C1CC(O)C(CO)O1 (stereo not given)", "Microtubule-associated protein tau (Homo sapiens) (UniProt P10636)", "Criterion not met"),
    ("CCC1(O)C(=O)OCc2c1cc1n(c2=O)Cc2cc3c(CN(C)C)c(O)ccc3nc2-1 (stereo not given)", "Microtubule-associated protein tau (Homo sapiens) (UniProt P10636)", "Criterion met"),
    ("C[N+](C)(C)CCO", "Microtubule-associated protein tau (Homo sapiens) (UniProt P10636)", "Criterion not met"),
    ("Nc1nc2[nH]cc(CCc3ccc(C(=O)NC(CCC(=O)O)C(=O)O)cc3)c2c(=O)[nH]1 (stereo not given)", "Microtubule-associated protein tau (Homo sapiens) (UniProt P10636)", "Criterion not met"),
    ("CC(OC1OCCN(Cc2n[nH]c(=O)[nH]2)C1c1ccc(F)cc1)c1cc(C(F)(F)F)cc(C(F)(F)F)c1 (stereo not given)", "Microtubule-associated protein tau (Homo sapiens) (UniProt P10636)", "Criterion met"),
]

These data points were gathered from PubChem BioAssay AID2061166.
